test system: Saccharomyces cerevisiae; test: protein stability index of tFT-peptide fusion (C-terminal peptide) (PSI (0-1 scale)); higher = more stable (slower turnover); details: genetic background: wild type; temperature: 30 C
readout.type: protein stability index
Kindly provide the number alone.

Recorded results for 6 sequences are shown here.
sequence.entry	readout.value
QILVSYSFLYFF	0.38
FRFYCGLVIANV	0.377
GFSFFFIFWFFF	0.339
PSPRRPPRSRFP	0.654
VFFVLIFLLFLF	0.353
VICVVLSKVFLF	0.393

The recorded protein stability index for entry VLLYRIAPRLLH equals 0.202

The recorded protein stability index for entry LCSLSIFVLFSC equals 0.147

The recorded protein stability index for entry FIPPRTYCLMIG equals 0.233

The recorded protein stability index for entry VMWFVLVGLCIL equals 0.378

The recorded protein stability index for entry ISTRLALCACVC equals 0.208

The recorded protein stability index for entry LSLFPFLPSPCP equals 0.669

The recorded protein stability index for entry FFLDVMFLLFFF equals 0.399

The recorded protein stability index for entry SLTNYQRLIHVC equals 0.126

The recorded protein stability index for entry GLSVLLTCIHFV equals 0.176

###

test system: Saccharomyces cerevisiae; assay: protein stability index of tFT-peptide fusion (C-terminal peptide) (PSI (0-1 scale)); higher = more stable (slower turnover); conditions: genetic background: wild type; temperature: 37 C
readout.type: protein stability index
Kindly provide the number alone.

Recorded results for 5 sequences are shown here.
sequence.entry	assayed.system	protein stability index
PSFLAIRVCLLV	Saccharomyces cerevisiae	0.0987
PAMPTEPKSSSG	Saccharomyces cerevisiae	0.717
LCFLVLLSLLLL	Saccharomyces cerevisiae	0.506
EVFLARKRSMVV	Saccharomyces cerevisiae	0.418
FGGICFAVLLCR	Saccharomyces cerevisiae	0.357

The recorded protein stability index for entry YIILLSRKCAFC equals 0.586

The recorded protein stability index for entry IKCVPLVWRLTV equals 0.195

The recorded protein stability index for entry RICACHGIRFIP equals 0.617

###

system: Saccharomyces cerevisiae; assay: protein stability index of tFT-peptide fusion (C-terminal peptide) (PSI (0-1 scale)); higher = more stable (slower turnover); settings: genetic background: das1 deletion; temperature: 30 C
Documented protein stability index across a set of sequences
Kindly provide the number alone.

Recorded results for 8 sequences are shown here.
sequence.entry	protein stability index
LFGFYFVRCLVW	0.178
RCRLYLNVVVLC	0.287
VSLCVVYGLVVG	0.29
VRWALLGVVVEG	0.293
LAGVVWVVWCVG	0.195
LVGLLASWLRFN	0.672
LVRFYGPLPPFP	0.664
GWCLLRVLVLVW	0.0937

The recorded protein stability index for entry FPVSSRSFSFIP equals 0.666

The recorded protein stability index for entry VILYCSNVAVCS equals 0.246

###

system: Saccharomyces cerevisiae; assay: protein stability index of tFT-peptide fusion (C-terminal peptide) (PSI (0-1 scale)); higher = more stable (slower turnover); details: genetic background: wild type; temperature: 30 C
Decide using protein stability index: a value greater than or equal to 0.5 is t, a smaller one is f.

Challenge: # check: protein stability index of LLQCRTGLASGR is greater than or equal to 0.5
Response given: t

Challenge: # check: protein stability index of SFSFCCLLASFV is greater than or equal to 0.5
Response given: f

Challenge: # check: protein stability index of VFLFSWYIFSVF is greater than or equal to 0.5
Response given: f

Challenge: # check: protein stability index of APDLAVWNLGPH is greater than or equal to 0.5
Response given: t

Challenge: # check: protein stability index of FLRPALACDVYN is greater than or equal to 0.5
Response given: t

Challenge: # check: protein stability index of PEFNKLNRFVSQ is greater than or equal to 0.5
Response given: t

Challenge: # check: protein stability index of CSNGVPLTVLLM is greater than or equal to 0.5
Response given: t

Challenge: # check: protein stability index of SEFDSVSRIVYY is greater than or equal to 0.5
Response given: t

Challenge: # check: protein stability index of SYHRAAPFQSCD is greater than or equal to 0.5
Response given: t

Challenge: # check: protein stability index of PLPCPRGHDHPA is greater than or equal to 0.5
Response given: t

###

tested on: Saccharomyces cerevisiae; assay: protein stability index of tFT-peptide fusion (C-terminal peptide) (PSI (0-1 scale)); higher = more stable (slower turnover); details: genetic background: wild type; temperature: 30 C
readout.type: protein stability index
Kindly provide the number alone.

Recorded results for 8 sequences are shown here.
sequence.entry	assayed.system	protein stability index
LLLLIPCYSPPP	Saccharomyces cerevisiae	0.659
SPFGFPPPSPPA	Saccharomyces cerevisiae	0.684
FGFWCGWFAALP	Saccharomyces cerevisiae	0.689
KRRKERIKIQQI	Saccharomyces cerevisiae	0.261
CFIPLCPLSFCI	Saccharomyces cerevisiae	0.609
EVFLARKRSMVV	Saccharomyces cerevisiae	0.341
LNRTLCYKCILR	Saccharomyces cerevisiae	0.564
PSRPPRLPPASF	Saccharomyces cerevisiae	0.681

The recorded protein stability index for entry SRLKAPADTDPN equals 0.7

The recorded protein stability index for entry SFSFLLSLSFLP equals 0.529

The recorded protein stability index for entry KKKKKKKKEKKK equals 0.726

###

system: Saccharomyces cerevisiae; assay: protein stability index of tFT-peptide fusion (C-terminal peptide) (PSI (0-1 scale)); higher = more stable (slower turnover); conditions: genetic background: wild type; temperature: 30 C
Decide using protein stability index: a value greater than or equal to 0.7 is Condition met, a smaller one is Condition not met.

Below are worked cases with known answers.
sequence.entry	group
KLLIRFILLVNS [YPR130C C-terminal 12 aa]	Condition not met
QSARRQRGSIAM [SDS24 C-terminal 12 aa]	Condition not met
LLEGIIIKLFLY [YDL011C C-terminal 12 aa]	Condition not met
REWFDIELNFSK [PMT4 C-terminal 12 aa]	Condition met
VILMVDFTLVGP [YDR262W C-terminal 12 aa]	Condition not met
TRGEATLRANYQ [YOR008W-B C-terminal 12 aa]	Condition met
NLDGQIHYLQRL [GAL7 C-terminal 12 aa]	Condition met
YNKLKGAGHKKE [PAI3 C-terminal 12 aa]	Condition not met

Challenge: # check: protein stability index of RIEQNRPDDGVY [FMP16 C-terminal 12 aa] is greater than or equal to 0.7
Response given: Condition not met

Challenge: # check: protein stability index of KIRPTFGDNQAS [HST3 C-terminal 12 aa] is greater than or equal to 0.7
Response given: Condition met

Challenge: # check: protein stability index of FGWFDMNMEQGF [SEF1 C-terminal 12 aa] is greater than or equal to 0.7
Response given: Condition met

Challenge: # check: protein stability index of IVPSQGKKVKFD [NOP13 C-terminal 12 aa] is greater than or equal to 0.7
Response given: Condition not met

Challenge: # check: protein stability index of SQRPAKGVPEGF [VPS72 C-terminal 12 aa] is greater than or equal to 0.7
Response given: Condition met

Challenge: # check: protein stability index of TALNSGRSRDVK [YJL027C C-terminal 12 aa] is greater than or equal to 0.7
Response given: Condition not met

Challenge: # check: protein stability index of KTSNTKVSSRKA [ELO3 C-terminal 12 aa] is greater than or equal to 0.7
Response given: Condition not met

Challenge: # check: protein stability index of PLCYWHYSADTY [YIL105W-A C-terminal 12 aa] is greater than or equal to 0.7
Response given: Condition met

Challenge: # check: protein stability index of ITSYNFLGVPFK [YLR406C-A C-terminal 12 aa] is greater than or equal to 0.7
Response given: Condition met

###

system: Saccharomyces cerevisiae; assay: protein stability index of tFT-peptide fusion (C-terminal peptide) (PSI (0-1 scale)); higher = more stable (slower turnover); conditions: genetic background: das1 deletion; temperature: 30 C
Decide using protein stability index: a value greater than or equal to 0.7 is 1.0, a smaller one is 0.0.

Below are worked cases with known answers.
sequence.entry	group
TEFMNFWINVLP [RSC4 C-terminal 12 aa]	1.0
RVYTEQNVPVVS [YNL194C C-terminal 12 aa]	0.0
FRSSAGLRSSKV [MIC10 C-terminal 12 aa]	1.0
ISIVACALWLVF [DCW1 C-terminal 12 aa]	0.0
SAQRDRRYRKRN [RPS17B C-terminal 12 aa]	1.0
GAALMALLGKWA [ZRT2 C-terminal 12 aa]	1.0
NTVELLNIPLTS [YLR345W C-terminal 12 aa]	0.0
KLESSKNTSHEK [NFU1 C-terminal 12 aa]	1.0
GLSIDTRSAYFV [YPL251W C-terminal 12 aa]	1.0
DKYPFLLYEVVR [YHR022C-A C-terminal 12 aa]	0.0

Challenge: # check: protein stability index of IRSRGRLKEVYF [SLX5 C-terminal 12 aa] is greater than or equal to 0.7
Response given: 1.0

Challenge: # check: protein stability index of ATRVSSRLRNKK [EAF7 C-terminal 12 aa] is greater than or equal to 0.7
Response given: 1.0
